- target-or-system: NMDAR2C (Homo sapiens)
- Construct: expressed in transfected cells; host or cells: HEK cells (membrane extract)
- Sequence (Q14957 20-1233, species assumed, other chains not shown): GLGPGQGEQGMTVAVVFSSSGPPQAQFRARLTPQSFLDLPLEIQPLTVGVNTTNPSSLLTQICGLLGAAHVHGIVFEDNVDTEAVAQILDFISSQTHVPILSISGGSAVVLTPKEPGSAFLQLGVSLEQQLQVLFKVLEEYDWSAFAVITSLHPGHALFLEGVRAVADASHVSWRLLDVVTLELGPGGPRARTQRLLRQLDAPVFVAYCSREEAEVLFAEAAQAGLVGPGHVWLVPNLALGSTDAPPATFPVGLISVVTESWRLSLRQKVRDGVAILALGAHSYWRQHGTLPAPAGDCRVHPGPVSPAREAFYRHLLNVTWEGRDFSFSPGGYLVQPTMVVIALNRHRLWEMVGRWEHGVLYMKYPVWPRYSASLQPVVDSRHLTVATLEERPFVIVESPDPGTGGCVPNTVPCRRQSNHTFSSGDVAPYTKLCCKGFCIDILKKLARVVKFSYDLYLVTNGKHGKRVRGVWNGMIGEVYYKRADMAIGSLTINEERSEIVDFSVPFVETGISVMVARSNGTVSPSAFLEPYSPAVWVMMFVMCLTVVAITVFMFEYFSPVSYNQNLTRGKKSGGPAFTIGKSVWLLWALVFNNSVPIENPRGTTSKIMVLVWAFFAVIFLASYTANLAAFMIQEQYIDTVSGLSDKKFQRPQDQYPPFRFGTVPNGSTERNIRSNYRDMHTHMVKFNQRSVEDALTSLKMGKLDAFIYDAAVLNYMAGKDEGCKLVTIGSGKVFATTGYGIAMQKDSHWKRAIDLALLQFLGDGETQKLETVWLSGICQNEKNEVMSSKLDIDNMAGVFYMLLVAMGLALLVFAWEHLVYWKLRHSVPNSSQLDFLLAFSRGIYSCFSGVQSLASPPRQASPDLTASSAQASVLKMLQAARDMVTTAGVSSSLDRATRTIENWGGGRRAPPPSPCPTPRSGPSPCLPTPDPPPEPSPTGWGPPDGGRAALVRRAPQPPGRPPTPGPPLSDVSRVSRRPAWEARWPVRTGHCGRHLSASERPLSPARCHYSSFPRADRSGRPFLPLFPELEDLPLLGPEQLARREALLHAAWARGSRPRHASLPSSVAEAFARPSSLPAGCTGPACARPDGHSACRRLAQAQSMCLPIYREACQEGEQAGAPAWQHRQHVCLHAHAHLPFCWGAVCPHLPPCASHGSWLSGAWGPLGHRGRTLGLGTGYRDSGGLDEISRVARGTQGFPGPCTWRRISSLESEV
- measurement-notes: [3H]MK-801 binding, NMDAR2C expressing HEK cell membranes
- Type: biochemical
- condition-info: 50 μM glutamate
observable: NMDAR2C A: % maximal [3H]MK-801 binding relative to 1 mM glycine

Observe how each entry below is paired with its result.
>  <compound>
CC(C)(C)OC(=O)N1CCNC2(CNC2=O)C1 (single isomer, unassigned) [EB-1]

>  <obs-value>
+ (<100%=+)

$$$$
>  <compound>
C[C@@H](O)[C@H](N)C(=O)N1CCN(Cc2ccccc2)C2(CNC2=O)C1 (single isomer, unassigned)

>  <obs-value>
+ (<100%=+)

$$$$
>  <compound>
CN1CCN(C(=O)OC(C)(C)C)CC12CN(CC(N)=O)C2=O (stereo not drawn) [ER-117]

>  <obs-value>
− (−=0)

$$$$
>  <compound>
CC(C)(C)OC(=O)N1CCN(C(=O)OC(C)(C)C)C2(CNC2=O)C1 (single isomer, unassigned) [EE-1]

>  <obs-value>
− (−=0)

$$$$
>  <compound>
CN1CCNC2(CNC2=O)C1 (stereo not drawn) [EH-2]

>  <obs-value>
− (−=0)

$$$$
>  <compound>
CN1CCN(C(=O)OC(C)(C)C)CC12CN(CC(N)=O)C2=O (stereo not drawn) [ER-118]

>  <obs-value>
− (−=0)

$$$$

For the record CN1CCN(Cc2ccccc2)C2(CNC2=O)C1 (single isomer, unassigned) [EG-2] , what value of NMDAR2C A: % maximal [3H]MK-801 binding relative to 1 mM glycine is listed for NMDAR2C (Homo sapiens)?
+ (<100%=+)

For the record CN1CCNC2(CNC2=O)C1 (stereo not drawn) [EH-1] , what value of NMDAR2C A: % maximal [3H]MK-801 binding relative to 1 mM glycine is listed for NMDAR2C (Homo sapiens)?
− (−=0)
